assay-explanation: CellTiter-Glo Luminescent Cell Viability Assay (cytotoxicity)
test-conditions: Chinese hamster, Cytotoxicity %, Test 2, 10 nM, 20 minutes
property-name: cytotoxicity at 20 minutes, 0.01 µM (%)
Please state the figure in %; there is no need to write the unit.

Request: Entry C[C@@H](O)[C@@H]1NC(=O)[C@H](CCCCN)NC(=O)[C@@H](Cc2c[nH]c3ccccc23)NC(=O)[C@H](Cc2ccccc2)NC(=O)[C@@H](NC(=O)[C@H](N)Cc2ccccc2)CSSC[C@@H](C(=O)N[C@H](CO)[C@@H](C)O)NC1=O [Octreotide] has what cytotoxicity at 20 minutes, 0.01 µM?
Result: 8

---

assay-explanation: in vitro
test-conditions: Chinese hamster
property-name: cytotoxicity at 20 min, 20 mg/ml (%)
State just the number; it will be interpreted in %.

Request: Need cytotoxicity at 20 min, 20 mg/ml of C[C@@H]1CC[C@@]2(OC1)O[C@H]1[C@@H](O)[C@H]3[C@@H]4CC[C@H]5C[C@@H](O[C@@H]6O[C@H](CO)[C@H](O[C@@H]7O[C@H](CO)[C@@H](O)[C@H](O[C@@H]8OC[C@@H](O)[C@H](O)[C@H]8O)[C@H]7O[C@@H]7O[C@H](CO)[C@H](O)[C@H](O[C@@H]8O[C@H](CO)[C@@H](O)[C@H](O)[C@H]8O)[C@H]7O)[C@H](O)[C@H]6O)[C@H](O)C[C@]5(C)[C@H]4CC[C@]3(C)[C@H]1[C@@H]2C , thanks.
Result: 100

---

assay-explanation: CellTiter-Glo Luminescent Cell Viability Assay (cytotoxicity)
test-conditions: Chinese hamster, Cytotoxicity %, test 1, 10 nM, 20 minutes
property-name: cytotoxicity at 20 minutes, 0.01 µM (%)
The reply should contain only the number, in %.

Request: What value of cytotoxicity at 20 minutes, 0.01 µM has been reported for the following molecule? C[C@@H](O)[C@@H]1NC(=O)[C@H](CCCCN)NC(=O)[C@@H](Cc2c[nH]c3ccccc23)NC(=O)[C@H](Cc2ccccc2)NC(=O)[C@@H](NC(=O)[C@H](N)Cc2ccccc2)CSSC[C@@H](C(=O)N[C@H](CO)[C@@H](C)O)NC1=O [Octreotide]
Result: -4
